Listing of entries alongside the reported activity at 0.03 µM.
Tested on: hSC-CMs (Cor.4U Cardiomyocytes)
Assay: CardioExcyte 96 impedance and EFP recording (beating rate, base impedance)
Assay type: cell-based, human
Conditions: Homo sapiens, Cardiomyocyte; 0.03 µM, 24h; vs baseline before drug (taken as 100%); read-out: BR
Readout: activity at 0.03 µM (%)

>>> measured_value("Cn1c(=O)n(-c2ccc(C(C)(C)C#N)cc2)c2c3cc(-c4cnc5ccccc5c4)ccc3ncc21")
90
>>> measured_value("O=c1cc(N2CCOCC2)oc2c(-c3ccccc3)cccc12")
111
>>> measured_value("Cn1cc(C2=C(c3ccc(Cl)cc3Cl)C(=O)NC2=O)c2ccccc21")
91
>>> measured_value("Cc1c[nH]c(-c2cnc(NCCNc3ccc(C#N)cn3)nc2-c2ccc(Cl)cc2Cl)n1")
95

###

Listing of entries alongside the reported activity at 0.3 µM.
Tested on: hSC-CMs (Cor.4U Cardiomyocytes)
Experiment: CardioExcyte 96 impedance and EFP recording (beating rate, base impedance)
Type: cell-based, human
Conditions: Homo sapiens, Cardiomyocyte; 0.3 µM, 24h; vs baseline before drug (taken as 100%); read-out: BR
Readout: activity at 0.3 µM (%)

>>> measured_value("Cn1c(=O)n(-c2ccc(C(C)(C)C#N)cc2)c2c3cc(-c4cnc5ccccc5c4)ccc3ncc21")
57
>>> measured_value("O=c1cc(N2CCOCC2)oc2c(-c3ccccc3)cccc12")
94
>>> measured_value("Cn1cc(C2=C(c3ccc(Cl)cc3Cl)C(=O)NC2=O)c2ccccc21")
94
>>> measured_value("O=S(=O)(c1cccc2cnccc12)N1CCCNCC1")
97
>>> measured_value("Cc1c[nH]c(-c2cnc(NCCNc3ccc(C#N)cn3)nc2-c2ccc(Cl)cc2Cl)n1")
92

###

Test system: hSC-CMs (Cor.4U Cardiomyocytes)
Experiment: CardioExcyte 96 impedance and EFP recording (beating rate, base impedance)
Format: cell-based, human
Conditions: Homo sapiens, Cardiomyocyte; 0.03 µM, 2h; vs baseline before drug (taken as 100%); read-out: Base Imp
Listing of entries alongside the reported activity at 0.03 µM.
Readout: activity at 0.03 µM (%)

>>> measured_value("O=c1cc(N2CCOCC2)oc2c(-c3ccccc3)cccc12")
72
>>> measured_value("Cn1cc(C2=C(c3ccc(Cl)cc3Cl)C(=O)NC2=O)c2ccccc21")
109
>>> measured_value("Cc1c[nH]c(-c2cnc(NCCNc3ccc(C#N)cn3)nc2-c2ccc(Cl)cc2Cl)n1")
96
>>> measured_value("Cn1c(=O)n(-c2ccc(C(C)(C)C#N)cc2)c2c3cc(-c4cnc5ccccc5c4)ccc3ncc21")
88

###

Tested on: hSC-CMs (Cor.4U Cardiomyocytes)
Assay: Apoptosis assay (CellEvent Caspase-3/7 Green, IncuCyte ZOOM kinetics over 24 h)
Format: cell-based, human
Set-up: key: % of time-matched vehicle control (green object area)
Conditions: 0.1 µM, 2h; normalized to time-matched vehicle control
Listing of entries alongside the reported Caspase.
Readout: Caspase

>>> measured_value("O=C(NCc1cccc(O)c1)Nc1nc(-c2ccncc2)cs1 [RKI-1447]")
117
>>> measured_value("Cc1cc(C(C)Nc2ccccc2)c2nc(N3CCOCC3)cc(=O)n2c1 (stereo not shown) [TGX-221]")
104
>>> measured_value("CCOC(=O)c1cnc2ccc(-c3cncc(NS(=O)(=O)c4ccccc4)c3)cn12 [HS-173]")
138
>>> measured_value("CC1=C(C(=O)Nc2cc3cn[nH]c3cc2F)C(c2ccc(C(F)(F)F)cc2)CC(=O)N1 (stereo not shown) [GSK-429286]")
109

###

Listing of entries alongside the reported ATP.
Tested on: hSC-CMs (Cor.4U Cardiomyocytes)
Assay: ATP assay (CellTiter-Glo Luminescent Cell Viability Assay)
Format: cell-based, human
Settings: 0.1 µM, 2h; normalized to time-matched DMSO control
Readout: ATP

>>> measured_value("CC1=C(C(=O)Nc2cc3cn[nH]c3cc2F)C(c2ccc(C(F)(F)F)cc2)CC(=O)N1 (stereo not shown)")
101
>>> measured_value("CCOC(=O)c1cnc2ccc(-c3cncc(NS(=O)(=O)c4ccccc4)c3)cn12")
87
>>> measured_value("Cc1cc(C(C)Nc2ccccc2)c2nc(N3CCOCC3)cc(=O)n2c1 (stereo not shown)")
105
>>> measured_value("O=C(NCc1cccc(O)c1)Nc1nc(-c2ccncc2)cs1")
99

###

System: hSC-CMs (Cor.4U Cardiomyocytes)
Assay: CardioExcyte 96 impedance and EFP recording (beating rate, base impedance)
Assay type: cell-based, human
Settings: 1 µM, 24h; vs baseline before drug (taken as 100%)
Listing of entries alongside the reported BR.
Readout: BR

>>> measured_value("Cc1cc(C(C)Nc2ccccc2)c2nc(N3CCOCC3)cc(=O)n2c1 (stereo not shown)")
95
>>> measured_value("CC1=C(C(=O)Nc2cc3cn[nH]c3cc2F)C(c2ccc(C(F)(F)F)cc2)CC(=O)N1 (stereo not shown)")
109
>>> measured_value("O=C(NCc1cccc(O)c1)Nc1nc(-c2ccncc2)cs1")
107
>>> measured_value("CCOC(=O)c1cnc2ccc(-c3cncc(NS(=O)(=O)c4ccccc4)c3)cn12")
75

###

Listing of entries alongside the reported activity at 0.1 µM.
Tested on: hSC-CMs (Cor.4U Cardiomyocytes)
Test: Apoptosis assay (CellEvent Caspase-3/7 Green, IncuCyte ZOOM kinetics over 24 h)
Assay type: cell-based, human
Conditions: Homo sapiens, Cardiomyocyte; 0.1 µM, 2h; normalized to time-matched vehicle control
Readout: activity at 0.1 µM

>>> measured_value("CC(C)(C)NS(=O)(=O)c1cncc(-c2cc(F)c3nc(N)nn3c2)c1")
"132%"
>>> measured_value("CS(=O)(=O)N1CCN(Cc2cc3nc(-c4cccc5[nH]ncc45)nc(N4CCOCC4)c3s2)CC1")
"138%"
>>> measured_value("Cc1c[nH]c(-c2cnc(NCCNc3ccc(C#N)cn3)nc2-c2ccc(Cl)cc2Cl)n1")
"143%"
>>> measured_value("Cn1cc(C2=C(c3ccc(Cl)cc3Cl)C(=O)NC2=O)c2ccccc21")
"174%"

###

System: hSC-CMs (Cor.4U Cardiomyocytes)
Experiment: CardioExcyte 96 impedance and EFP recording (beating rate, base impedance)
Type: cell-based, human
Details: 0.1 µM, 2h; vs baseline before drug (taken as 100%)
Listing of entries alongside the reported BR.
Readout: BR

>>> measured_value("Cc1cc(C(C)Nc2ccccc2)c2nc(N3CCOCC3)cc(=O)n2c1 (stereo not shown)")
98
>>> measured_value("CCOC(=O)c1cnc2ccc(-c3cncc(NS(=O)(=O)c4ccccc4)c3)cn12")
93
>>> measured_value("O=C(NCc1cccc(O)c1)Nc1nc(-c2ccncc2)cs1")
106
>>> measured_value("CC1=C(C(=O)Nc2cc3cn[nH]c3cc2F)C(c2ccc(C(F)(F)F)cc2)CC(=O)N1 (stereo not shown)")
102

###

Tested on: hSC-CMs (Cor.4U Cardiomyocytes)
Assay: Apoptosis assay (CellEvent Caspase-3/7 Green, IncuCyte ZOOM kinetics over 24 h)
Type: cell-based, human
Conditions: Homo sapiens, Cardiomyocyte; 0.3 µM, 24h; normalized to time-matched vehicle control
Readout: activity at 0.3 µM (%)

>>> measured_value("Cn1c(=O)n(-c2ccc(C(C)(C)C#N)cc2)c2c3cc(-c4cnc5ccccc5c4)ccc3ncc21")
320
>>> measured_value("Cn1cc(C2=C(c3ccc(Cl)cc3Cl)C(=O)NC2=O)c2ccccc21")
265
>>> measured_value("O=c1cc(N2CCOCC2)oc2c(-c3ccccc3)cccc12")
93
>>> measured_value("O=S(=O)(c1cccc2cnccc12)N1CCCNCC1")
80
>>> measured_value("CS(=O)(=O)N1CCN(Cc2cc3nc(-c4cccc5[nH]ncc45)nc(N4CCOCC4)c3s2)CC1")
113
>>> measured_value("Cc1c[nH]c(-c2cnc(NCCNc3ccc(C#N)cn3)nc2-c2ccc(Cl)cc2Cl)n1")
80

###

Test system: hSC-CMs (Cor.4U Cardiomyocytes)
Test: Apoptosis assay (CellEvent Caspase-3/7 Green, IncuCyte ZOOM kinetics over 24 h)
Format: cell-based, human
Design: key: % of time-matched vehicle control (green object area)
Settings: 1 µM, 2h; normalized to time-matched vehicle control
Listing of entries alongside the reported Caspase.
Readout: Caspase

>>> measured_value("O=C(NCc1cccc(O)c1)Nc1nc(-c2ccncc2)cs1 [RKI-1447]")
90
>>> measured_value("Cc1cc(C(C)Nc2ccccc2)c2nc(N3CCOCC3)cc(=O)n2c1 (stereo not shown) [TGX-221]")
87
>>> measured_value("CCOC(=O)c1cnc2ccc(-c3cncc(NS(=O)(=O)c4ccccc4)c3)cn12 [HS-173]")
120
>>> measured_value("CC1=C(C(=O)Nc2cc3cn[nH]c3cc2F)C(c2ccc(C(F)(F)F)cc2)CC(=O)N1 (stereo not shown) [GSK-429286]")
104

###

Listing of entries alongside the reported activity at 0.03 µM.
Test system: hSC-CMs (Cor.4U Cardiomyocytes)
Test: CardioExcyte 96 impedance and EFP recording (beating rate, base impedance)
Type: cell-based, human
Conditions: Homo sapiens, Cardiomyocyte; 0.03 µM, 2h; vs baseline before drug (taken as 100%); read-out: BR
Readout: activity at 0.03 µM

>>> measured_value("Cc1c[nH]c(-c2cnc(NCCNc3ccc(C#N)cn3)nc2-c2ccc(Cl)cc2Cl)n1")
"99%"
>>> measured_value("Cn1cc(C2=C(c3ccc(Cl)cc3Cl)C(=O)NC2=O)c2ccccc21")
"98%"
>>> measured_value("O=c1cc(N2CCOCC2)oc2c(-c3ccccc3)cccc12")
"112%"
>>> measured_value("Cn1c(=O)n(-c2ccc(C(C)(C)C#N)cc2)c2c3cc(-c4cnc5ccccc5c4)ccc3ncc21")
"99%"
